Where these numbers come from: ChEMBL document CHEMBL5725671

- assayed-target: 3-phosphoinositide-dependent protein kinase 1 (Homo sapiens, UniProt O15530)
- experimental-details: PDK1 kinase assay: PDK1 (amino acids 51-359) and AKT2 (amino acids 140-467 fused to PIFtide, amino acids […]) were expressed as N-terminally tagged GST fusion proteins in insect cells and purified to homogeneity. Enzyme activity was determined in a coupled PDK1/AKT/FAM-crosstide assay and phosphorylation of FAM-crosstide was determined by standard IMAP protocol (Molecular Devices). For inhibition studies, compounds were titrated 4-fold in DMSO and diluted 40-fold into assay buffer (10 mM Tris HCl pH7.2; 10 mM MgCl2; 0.01% Triton X-100; 1 mM DTT) containing PDK1, AKT2, and FAM-crosstide (final concentrations: 0.75 nM PDK1, 10 nM unphosphorylated AKT2, and 100 nM crosstide substrate). The kinase reaction was initiated by adding ATP to a final concentration of 40 μM of PDK1 and incubated at 25° C. for 30 min. To detect assay product, the kinase reaction was combined with Progressive Binding Solution (1:600 Progressive Binding Reagent, 50% Buffer A, 50% Buffer B, Molecular Devices) in a 1:3 ratio. The mixture was incubated for 2 hours at 25° C. and the plate was scanned on an Analyst AD with excitation at 485 nm and emission at 530 nm. The fluorescence polarization value P is defined by the equation below. The value mP is generated by multiplying the P value for each reaction well by a factor of 1000. The value ΔmP for each well is the mP value for that well minus the mP value for the average negative control. P=(Fpar−Fperp)/(Fpar+Fperp) Eq.:Where par is fluorescence intensity parallel to the excitation plane; and perp is fluorescence intensity perpendicular to the excitation plane. ΔmP values were plotted as a function of compound concentration and the data were analyzed with a 4-parameter fit using GraphPad Prism software.
pIC50: −log10 of the molar value.
I'd appreciate it if you could supply pIC50 values for the items below.

Exercise: Query: pIC50; subject: N#Cc1cc(F)ccc1NC(=O)c1cc(C(F)(F)F)cnc1NCc1ccc(-c2cnc3[nH]nc(N)c3c2)cc1
Key: > 7.00

Exercise: Query: pIC50; subject: C[C@H](NC(=O)c1cc(C#N)cnc1NCc1ccc(-c2cnc3[nH]nc(N)c3c2)cc1F)c1ccc(F)cc1
Key: > 7.00

Exercise: Query: pIC50; subject: Nc1ncnc2ccc(-c3ccc(CNc4ncc(Br)cc4S(=O)(=O)NCc4ccc(F)c(F)c4)s3)cc12
Key: < 5.30

Exercise: Query: pIC50; subject: Cc1ccc(NC(=O)c2cccnc2NCc2ccc(-c3ccc4ncnc(N)c4c3)s2)cc1F
Key: < 5.30

Exercise: Query: pIC50; subject: C[C@H](NC(=O)c1nc(C#N)cnc1N[C@H](C)c1ccc(-c2cnc3[nH]nc(N)c3c2)nc1)c1ccc(F)c(F)c1
Key: > 7.00

Exercise: Query: pIC50; subject: Nc1ncnc2ccc(-c3ccc(CNc4ncccc4C(=O)NCc4cncc(F)c4)s3)cc12
Key: > 7.00

Exercise: Query: pIC50; subject: C[C@H](NC(=O)c1nc(C#N)cnc1NCc1ccc(-c2cnc(N)c(CO)n2)cc1)c1ccc(F)c(F)c1
Key: > 7.00

Exercise: Query: pIC50; subject: C[C@H](NC(=O)c1cccnc1NCc1ccc(-c2ccc3ncnc(NCCO)c3c2)s1)c1ccc(F)cc1
Key: > 7.00

###

- assayed-target: 3-phosphoinositide-dependent protein kinase 1 (Homo sapiens, UniProt O15530)
- Sequence (O15530 whole entry): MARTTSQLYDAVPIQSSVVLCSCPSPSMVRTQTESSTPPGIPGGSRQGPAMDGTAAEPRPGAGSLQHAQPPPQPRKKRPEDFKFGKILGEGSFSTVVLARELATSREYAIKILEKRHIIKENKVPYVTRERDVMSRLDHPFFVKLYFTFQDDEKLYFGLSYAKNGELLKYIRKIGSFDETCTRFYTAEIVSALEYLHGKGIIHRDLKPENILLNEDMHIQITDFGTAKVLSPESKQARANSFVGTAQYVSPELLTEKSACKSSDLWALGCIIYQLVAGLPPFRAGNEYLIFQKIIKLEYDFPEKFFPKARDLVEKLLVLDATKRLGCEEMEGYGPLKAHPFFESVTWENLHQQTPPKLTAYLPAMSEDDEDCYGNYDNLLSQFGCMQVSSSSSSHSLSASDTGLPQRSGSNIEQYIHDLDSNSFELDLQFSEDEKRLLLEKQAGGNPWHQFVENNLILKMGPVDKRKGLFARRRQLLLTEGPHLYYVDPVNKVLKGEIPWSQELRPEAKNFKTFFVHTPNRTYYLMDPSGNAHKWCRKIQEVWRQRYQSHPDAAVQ
- experimental-details: PDK1 kinase assay: PDK1 (amino acids 51-359) and AKT2 (amino acids 140-467 fused to PIFtide, amino acids […]) were expressed as N-terminally tagged GST fusion proteins in insect cells and purified to homogeneity. Enzyme activity was determined in a coupled PDK1/AKT/FAM-crosstide assay and phosphorylation of FAM-crosstide was determined by standard IMAP protocol (Molecular Devices). For inhibition studies, compounds were titrated 4-fold in DMSO and diluted 40-fold into assay buffer (10 mM Tris HCl pH7.2; 10 mM MgCl2; 0.01% Triton X-100; 1 mM DTT) containing PDK1, AKT2, and FAM-crosstide (final concentrations: 0.75 nM PDK1, 10 nM unphosphorylated AKT2, and 100 nM crosstide substrate). The kinase reaction was initiated by adding ATP to a final concentration of 40 μM of PDK1 and incubated at 25° C. for 30 min. To detect assay product, the kinase reaction was combined with Progressive Binding Solution (1:600 Progressive Binding Reagent, 50% Buffer A, 50% Buffer B, Molecular Devices) in a 1:3 ratio. The mixture was incubated for 2 hours at 25° C. and the plate was scanned on an Analyst AD with excitation at 485 nm and emission at 530 nm. The fluorescence polarization value P is defined by the equation below. The value mP is generated by multiplying the P value for each reaction well by a factor of 1000. The value ΔmP for each well is the mP value for that well minus the mP value for the average negative control. P=(Fpar−Fperp)/(Fpar+Fperp) Eq.:Where par is fluorescence intensity parallel to the excitation plane; and perp is fluorescence intensity perpendicular to the excitation plane. ΔmP values were plotted as a function of compound concentration and the data were analyzed with a 4-parameter fit using GraphPad Prism software.
I'd appreciate it if you could supply IC50 values for the items below.

Exercise: Query: IC50; subject: C[C@H](NC(=O)c1nc(C#N)cnc1NCC#Cc1ccc2nc(N)ncc2c1)c1ccc(F)c(F)c1
Key: < 100 nM

Exercise: Query: IC50; subject: C[C@H](NC(=O)c1cc(C#N)cnc1NCC#Cc1ccc2nc(N)ncc2c1)c1ccc(F)cc1
Key: < 100 nM

Exercise: Query: IC50; subject: C[C@H](NC(=O)c1cccnc1NCc1ccc(-c2cc3c(cn2)ncn3C)s1)c1ccc(F)cc1
Key: > 5000 nM

Exercise: Query: IC50; subject: COCCNC(=O)c1cccnc1NCc1ccc(-c2ccc3ncnc(N)c3c2)s1
Key: > 5000 nM

Exercise: Query: IC50; subject: C[C@H](NC(=O)c1nc(C(F)(F)F)cnc1NCc1ccc(-c2cnc3[nH]nc(N)c3c2)cc1)c1ccc(F)c(F)c1
Key: < 100 nM

Exercise: Query: IC50; subject: C[C@H](NC(=O)c1cc(C#N)cnc1NCc1ccc(-c2cnc3[nH]nc(N)c3c2)cc1Cl)c1ccc(F)cc1
Key: < 100 nM
